Molecular target: wild-type Androgen Receptor (AR-wt) (Homo sapiens (Human), UniProt P10275)
Sequence (P10275 whole entry): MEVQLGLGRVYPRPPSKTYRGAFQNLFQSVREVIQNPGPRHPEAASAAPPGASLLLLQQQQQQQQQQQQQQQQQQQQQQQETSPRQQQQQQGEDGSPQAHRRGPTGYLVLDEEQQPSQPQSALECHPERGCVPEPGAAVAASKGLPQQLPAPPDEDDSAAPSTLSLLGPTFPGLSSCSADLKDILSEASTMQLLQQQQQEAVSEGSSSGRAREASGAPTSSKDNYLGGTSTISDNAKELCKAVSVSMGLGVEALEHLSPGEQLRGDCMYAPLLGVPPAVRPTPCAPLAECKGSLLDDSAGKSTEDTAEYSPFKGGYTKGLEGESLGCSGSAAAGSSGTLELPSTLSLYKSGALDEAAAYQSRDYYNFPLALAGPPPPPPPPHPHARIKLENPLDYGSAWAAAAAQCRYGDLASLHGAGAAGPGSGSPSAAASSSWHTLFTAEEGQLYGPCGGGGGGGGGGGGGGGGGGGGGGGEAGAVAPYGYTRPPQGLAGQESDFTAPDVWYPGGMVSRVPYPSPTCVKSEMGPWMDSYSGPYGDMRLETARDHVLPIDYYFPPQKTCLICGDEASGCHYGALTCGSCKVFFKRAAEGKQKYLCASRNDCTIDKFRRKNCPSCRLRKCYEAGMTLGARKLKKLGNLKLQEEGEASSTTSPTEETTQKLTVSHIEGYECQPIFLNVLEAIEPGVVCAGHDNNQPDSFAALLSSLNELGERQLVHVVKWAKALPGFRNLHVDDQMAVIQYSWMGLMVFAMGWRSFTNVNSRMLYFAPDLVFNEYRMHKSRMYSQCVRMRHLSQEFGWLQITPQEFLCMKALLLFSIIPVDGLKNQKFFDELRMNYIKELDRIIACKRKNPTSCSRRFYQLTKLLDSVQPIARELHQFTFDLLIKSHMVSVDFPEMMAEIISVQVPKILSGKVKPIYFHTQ
Assay: LNCaP-AR-wt AG reporter assay (agonist mode)
Type: cell-based
Conditions: maximum % stimulation (agonist response) over the tested concentration range; read-out: LNCaP-AR-wt AG MAX % Stim
reported-endpoint: Emax (%)

Below: 6 compounds and their reported Emax.
Q) What does the data say about its Emax? Entry: "N#Cc1ncc(N2C(=O)C3(CCC3)N(c3ccc4nn(C5CCNCC5)cc4c3)C2=S)cc1C(F)(F)F"
A) -0.1

Q) What does the data say about its Emax? Entry: CN1CC2CCC(C1)C2Oc1ccc(N2C(=S)N(c3cnc(C#N)c(C(F)(F)F)c3)C(=O)C23CCC3)cc1 (stereo not drawn)
A) 0.1

Q) What does the data say about its Emax? Entry: "COc1cc(N2C(=O)C3(CCC3)N(c3ccc(OC4CCNCC4)nc3)C2=S)cnc1C#N"
A) 0.2

Q) What does the data say about its Emax? Entry: "N#Cc1ncc(N2C(=O)C3(CCC3)N(c3ccc(OC4CCN(CCO)CC4)nc3)C2=S)cc1Cl"
A) 1.2

Q) What does the data say about its Emax? Entry: "CC(=O)N1CCC(Cn2ncc3cc(N4C(=S)N(c5cnc(C#N)c(C(F)(F)F)c5)C(=O)C45CCC5)ccc32)CC1"
A) 0.3

Q) What does the data say about its Emax? Entry: "N#Cc1ncc(N2C(=O)C3(CCC3)N(c3ccc4c(cnn4CC4CCNCC4)c3)C2=S)cc1C(F)(F)F"
A) 0.2

I. CN1CCC[C@H](CNC(=O)c2ccc(N3C(=S)N(c4cnc(C#N)c(C(F)(F)F)c4)C(=O)C34CCC4)cc2)C1
II. CN1CCCC(Oc2ccc(N3C(=S)N(c4cnc(C#N)c(C(F)(F)F)c4)C(=O)C34CCC4)cc2)CC1 (stereo not drawn)
III. COc1cc(N2C(=O)C3(CCC3)N(c3ccc(OC4CCN(C)CC4)nc3)C2=S)cnc1C#N
IV. N#Cc1ncc(N2C(=O)C3(CCC3)N(c3ccc(OC4C5CCC4CNC5)nc3)C2=S)cc1C(F)(F)F (stereo not drawn)
Q) Please put the entries in order of rising Emax. Response field: labels, in requested order.
A) III, I, II, IV

---

Target: F876L mutant Androgen Receptor (AR-F876L) (Homo sapiens (Human), UniProt P10275, F877L)
Sequence (P10275 whole entry F877L): as the sequence (P10275 whole entry) above, with F877L counted along it
Assay: LNCaP-AR-F876L AG reporter assay (agonist mode)
Format: cell-based
Details: agonist mode; pEC50 = −Log10(EC50 in Molar); read-out: LNCaP-AR-F876L AG pEC50 (converted)
In this section we review reported EC50 values for a set of molecules.

Q) What does the data say about its EC50? Entry: N#Cc1ncc(N2C(=O)C3(CCC3)N(c3ccc4c(cnn4C4CCNCC4)c3)C2=S)cc1C(F)(F)F [Cpd 119]
A) > 15.1 µM

Q) What does the data say about its EC50? Entry: COc1cc(N2C(=O)C3(CCC3)N(c3ccc(OC4CCN(C)CC4)nc3)C2=S)cnc1C#N [Cpd 25]
A) > 15.1 µM

Q) What does the data say about its EC50? Entry: Cc1cc(N2C(=O)C3(CCC3)N(c3ccc(N4CCNC4=O)cc3)C2=S)cnc1C#N [Cpd 9]
A) > 15.1 µM

Continuing:
Q) What does the data say about its EC50? Entry: COc1cc(N2C(=O)C3(CCC3)N(c3ccc4c(cnn4C4CCN(CCO)CC4)c3)C2=S)cnc1C#N [Cpd 225]
A) > 15.1 µM

Q) What does the data say about its EC50? Entry: Cl.N#Cc1ncc(N2C(=O)C3(CCC3)N(c3cnc(OC4CCNCC4)nc3)C2=S)cc1C(F)(F)F [Cpd 141]
A) > 15.1 µM

Q) What does the data say about its EC50? Entry: CCOC(=O)N1CCN(c2ccc(N3C(=S)N(c4cnc(C#N)c(C(F)(F)F)c4)C(=O)C34CCC4)cc2)CC1 [Cpd 58]
A) > 15.1 µM

Q) What does the data say about its EC50? Entry: N#CCN1CCC(Oc2ccc(N3C(=S)N(c4cnc(C#N)c(Cl)c4)C(=O)C34CCC4)cc2)CC1 [Cpd 51]
A) > 15.1 µM

Q) What does the data say about its EC50? Entry: COCCN1CCC(Oc2ccc(N3C(=S)N(c4cnc(C#N)c(Cl)c4)C(=O)C34CCC4)cn2)CC1 [Cpd 70]
A) > 15.1 µM

---

Target: F876L mutant Androgen Receptor (AR-F876L) (Homo sapiens (Human), UniProt P10275, F877L)
Experiment: LNCaP-AR-F876L AG reporter assay (agonist mode)
Type: cell-based
Settings: maximum % stimulation (agonist response) over the tested concentration range; read-out: LNCaP-AR-F876L AG MAX % Stim
reported-endpoint: Emax (%)

Q) What does the data say about its Emax? Entry: "CC(C)(C)OC(=O)N1CCC(CNC(=O)c2ccc(N3C(=S)N(c4cnc(C#N)c(C(F)(F)F)c4)C(=O)C34CCC4)cc2)CC1"
A) 0.3

Q) What does the data say about its Emax? Entry: "COCCn1ncc2ccc(N3C(=S)N(c4cnc(C#N)c(C(F)(F)F)c4)C(=O)C34CCC4)cc21"
A) 0

Q) What does the data say about its Emax? Entry: "CN1CCC(Cn2ncc3cc(N4C(=S)N(c5cnc(C#N)c(C(F)(F)F)c5)C(=O)C45CCC5)ccc32)CC1"
A) 0.9

Q) What does the data say about its Emax? Entry: "Cc1cc(N2C(=O)C3(CCC3)N(c3ccc(-c4cnn(C(N)=O)c4)cc3)C2=S)cnc1C#N"
A) 2.8

a. CCOC(=O)N1CCN(c2ccc(N3C(=S)N(c4cnc(C#N)c(C(F)(F)F)c4)C(=O)C34CCC4)cc2)CC1
b. N#Cc1ncc(N2C(=O)C3(CCC3)N(c3ccc(OC4CC5(CCN5)C4)cc3)C2=S)cc1C(F)(F)F (stereo not shown)
c. CN1CCC12CC(Oc1ccc(N3C(=S)N(c4cnc(C#N)c(C(F)(F)F)c4)C(=O)C34CCC4)cc1)C2 (stereo not shown)
Q) Please put the entries in order of rising Emax. Response field: labels, in requested order.
A) c, b, a

---

Test system: rGABA-gated Cl− channel
Test: GABA-Gated Cl Channel Antagonist Radioligand Binding Assay
Set-up: species or system rat
Conditions: 10 μM single point, [35S]-TBPS, cerebral cortex membrane homogenates
reported-endpoint: rGABA-gated Cl− channel % inh @10 μM (%)

Below: 5 compounds and their reported rGABA-gated Cl− channel % inh @10 μM.
Q) What does the data say about its rGABA-gated Cl− channel % inh @10 μM? Entry: "CC(C)CCN1CCC(Oc2ccc(N3C(=S)N(c4cnc(C#N)c(Cl)c4)C(=O)C34CCC4)cn2)CC1"
A) 35.4

Q) What does the data say about its rGABA-gated Cl− channel % inh @10 μM? Entry: CN(C)C1CCC(Oc2ccc(N3C(=S)N(c4cnc(C#N)c(C(F)(F)F)c4)C(=O)C34CCC4)cc2)CC1 (stereo not shown)
A) 28.8

Q) What does the data say about its rGABA-gated Cl− channel % inh @10 μM? Entry: N#Cc1ncc(N2C(=O)C3(CCC3)N(c3ccc(OC4C5CCC4CNC5)cc3)C2=S)cc1C(F)(F)F (stereo not shown)
A) 35.6

Q) What does the data say about its rGABA-gated Cl− channel % inh @10 μM? Entry: "CN1CC2(CC(Oc3ccc(N4C(=S)N(c5cnc(C#N)c(C(F)(F)F)c5)C(=O)C45CCC5)cc3)C2)C1"
A) 4.0

Q) What does the data say about its rGABA-gated Cl− channel % inh @10 μM? Entry: "N#Cc1ncc(N2C(=O)C3(CCC3)N(c3ccc(OC4CCN(CCF)CC4)cc3)C2=S)cc1C(F)(F)F"
A) 53.8

P. Cn1cc(N2C(=S)N(c3cnc(C#N)c(C(F)(F)F)c3)C(=O)C23CCC3)ccc1=O
Q. CCOC(=O)N1CCN(c2ccc(N3C(=S)N(c4cnc(C#N)c(C(F)(F)F)c4)C(=O)C34CCC4)cc2)CC1
Q) Problem: Given the entries P and Q , determine which has the lower reported rGABA-gated Cl− channel % inh @10 μM. Refer to your chosen item by its label in the answer.
A) P

---

Target: F876L mutant Androgen Receptor (AR-F876L) (Homo sapiens (Human), UniProt P10275, F877L)
Assay: LNCaP-AR-F876L ANT reporter assay (antagonist mode)
Format: cell-based
Details: maximum % inhibition of R1881 control response over the tested concentration range; read-out: LNCaP-AR-F876L ANT MAX % Inh
reported-endpoint: Emax (%)

Q) What does the data say about its Emax? Entry: CN1CCC(Oc2ccc(N3C(=S)N(c4cnc(C#N)c(C(F)(F)F)c4)C(=O)C34CCC4)cc2)C(F)(F)C1 (racemic)
A) 98.7

Q) What does the data say about its Emax? Entry: "CC1(Oc2ccc(N3C(=S)N(c4cnc(C#N)c(C(F)(F)F)c4)C(=O)C34CCC4)cc2)CCNCC1"
A) 99.5

Q) What does the data say about its Emax? Entry: N#Cc1ncc(N2C(=O)C3(CCC3)N(c3ccc(O[C@@H]4CCN[C@@H](C(F)(F)F)C4)cc3)C2=S)cc1C(F)(F)F (racemic)
A) 99.7

Q) What does the data say about its Emax? Entry: "Cc1cc(N2C(=O)C3(CCC3)N(c3ccc(-c4cn[nH]c4)cc3)C2=S)cnc1C#N"
A) 98.9

Q) What does the data say about its Emax? Entry: "COc1cc(N2C(=O)C3(CCC3)N(c3ccc(OC4CCN(C)CC4)cc3)C2=S)cnc1C#N"
A) 101

Q) What does the data say about its Emax? Entry: "CC(C)CCN1CCC(Oc2ccc(N3C(=S)N(c4cnc(C#N)c(Cl)c4)C(=O)C34CCC4)cn2)CC1"
A) 97.9

Q) What does the data say about its Emax? Entry: "N#Cc1ncc(N2C(=O)C3(CCC3)N(c3ccc(OCCN4CC5(C4)CC(F)(F)C5)cc3)C2=S)cc1C(F)(F)F"
A) 99
